The measurements presented in this section are drawn from the supplement of paper PMC7125110.

The entries below come with measured self-cleavage kobs at 10000 uM GlcN6P values attached.
B1: glmS ribozyme (parent)
chain: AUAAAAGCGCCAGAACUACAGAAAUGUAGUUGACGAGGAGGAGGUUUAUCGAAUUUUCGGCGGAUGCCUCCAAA

Variants of: B1
Assay: self-cleavage kobs at 10000 uM GlcN6P; higher = faster cleavage; RNA array
Details: with glucosamine-6-phosphate
Variants at the floor of the assay were thinned out.
All answers are understood in s⁻¹, so give the number only.

Example entries begin here.
INSERT INTO results (primary_sequence, measure, scale_unit, reported) VALUES
  ('AUAAAAGCGCCAGAACUACAGAAAUGUAGUUGACGACGAGGAGGUUUAUCGAAUUUUCGGCGGAUGCCUCUAAA', 'self-cleavage kobs at 10000 uM GlcN6P', 's⁻¹', '3.23e-05'),
  ('AUAAAAGCGCCGGAACUACAGAAAUGUAGUUGACGAGGAGGAGGUUUAUCGAAUUUUCGGCGGAUGACUCCAAA', 'self-cleavage kobs at 10000 uM GlcN6P', 's⁻¹', 0.000343),
  ('AUAAAAGCGCCAGAAUUACAGAAAUGUAGUUGACGAGGAGGAGGUUUAUCGAAUCUUCGGCGGAUGCCUUCAAA', 'self-cleavage kobs at 10000 uM GlcN6P', 's⁻¹', 0.000482),
  ('AUAAAAGCGCCAGAACUACAGAAAUGUAGUUGACGAGGAAGAGGUUUGUCGAAUUUUCGGCGGAUGCCUCCAAA', 'self-cleavage kobs at 10000 uM GlcN6P', 's⁻¹', '3.71e-05');

// self-cleavage kobs at 10000 uM GlcN6P lookup, variant = AUAAAAGCGCCAGAAUUACAGAAAUGUAGUUGACGAAGAGGAGGUUUAUCGAAUUUUCGGCGGAUGCCUCCAAA , result: 0.00262

// self-cleavage kobs at 10000 uM GlcN6P lookup, variant = AUAAAAGCGCCAGAACUACAGAAAUGUAGGUGACGAGGUGGAGGGUUAUCGAAUUUUCGGCGGAUGCCUCCAAA , result: 0.0014

// self-cleavage kobs at 10000 uM GlcN6P lookup, variant = AUAAAAGCGCCAGAACUACAGAAAUGUAGUUGACGAGGGGGAGGUUUAUCGACUUUUCGGCGGAUGCCUCAAAA , result: 0.00202

// self-cleavage kobs at 10000 uM GlcN6P lookup, variant = AUAAAAGCGCCAGAGCUACAGAAAUGUAGUUGACGAGGAGGAGGUUUAUCGAACUUUCGGCGGAUGCCUCCAAA , result: 0.0181

// self-cleavage kobs at 10000 uM GlcN6P lookup, variant = AUAAAAGCGCCAGAACUACAGAAAUGUAGUUGACGAGGAGGAGGUUUAUCGAAAUUUCGGCGGAUGCCUCCAAA , result: 0.0497

// self-cleavage kobs at 10000 uM GlcN6P lookup, variant = AUAAAAGCGCCAGAACUACAGAAAUGUAGUUGACGAGGAGGAGGUUGAUCGAAUUUUCGGCGGAUGCCUCAAAA , result: 0.00146

// self-cleavage kobs at 10000 uM GlcN6P lookup, variant = AUAAAAGCGCCAGAAUUACAGAAAUGUAGUUGACGAGGAGGAGGUUUAUCGAAUUUUCGGCGGACGCCUCCAAA , result: 0.000697

// self-cleavage kobs at 10000 uM GlcN6P lookup, variant = AUAAAAGCGCCAGAACUACAGAAAUGUAGUUGACGAGGAGGAUGUUUAUCGAAUUUUCGGCGGAUGCUUCCAAA , result: 0.00404

// self-cleavage kobs at 10000 uM GlcN6P lookup, variant = AUAAAAGCGCCAGAACUACAGAAAUGUAGUUGACGAGGAGGAGGUUUAUCGAAUUCUCGGCGGAUGACUCCAAA , result: 3.95e-05
